Molecular target: IL-23 (human, p19/p40 heterodimer) (Homo sapiens, UniProt Q9NPF7;P29460 SEQ:20-189,SEQ:23-328)
Sequence (Q9NPF7 20-189, chain 1 of 2): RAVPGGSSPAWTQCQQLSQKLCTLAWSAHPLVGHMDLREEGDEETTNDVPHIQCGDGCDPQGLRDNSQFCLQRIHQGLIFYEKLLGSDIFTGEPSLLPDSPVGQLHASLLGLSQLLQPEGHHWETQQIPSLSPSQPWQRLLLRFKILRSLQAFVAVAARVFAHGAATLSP
Sequence (P29460 23-328, chain 2 of 2): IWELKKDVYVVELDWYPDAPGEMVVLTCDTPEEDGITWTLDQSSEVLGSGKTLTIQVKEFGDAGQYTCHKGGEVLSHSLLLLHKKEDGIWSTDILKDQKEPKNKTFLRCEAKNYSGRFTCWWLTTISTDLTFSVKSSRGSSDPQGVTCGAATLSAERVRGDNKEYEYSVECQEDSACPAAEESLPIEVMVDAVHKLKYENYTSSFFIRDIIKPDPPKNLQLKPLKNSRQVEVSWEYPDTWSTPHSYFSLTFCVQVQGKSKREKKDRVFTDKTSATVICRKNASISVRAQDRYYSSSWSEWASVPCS
Assay: filter; 1X SHMCK, 1 mM Mg, 1 mM Ca, 0.1 mg/mL tRNA, RT
Settings: tags: R&D Systems, carrier free; label: 5'-32P
A collection of binders and their measured Kd
Output spec: scalar in nM, unitless text.

Examples with answers:
[[record]]
binder = "AMX86-D6 (ssRNA, 2'-F all C and U (rRfY)) RNA: GGGAAAAGCGAAUCAUACACAAGAUUAGGCGUCGUGACAAUAACUGGUCCACGAGCAUGUCAGUGCUCCGCCAGAGACCAACCGAGAA"
value_observed = 25

[[record]]
binder = "AMX86-D5 (ssRNA, 2'-F all C and U (rRfY)) RNA: GGGAAAAGCGAAUCAUACACAAGAGAGGUAUGUGGUUUUGCGGAGCAACUCGUGUCAGCGGUCAGCUCCGCCAGAGACCAACCGAGAA"
value_observed = 27.4

[[record]]
binder = "AMX84-C11 (ssRNA, 2'-F all C and U (rRfY)) RNA: GGGAAAAGCGAAUCAUACACAAGAAUGGUCGGAAUCUCUGGCGCCACGCUGAGUAUAGACGGAAGCUCCGCCAGAGACCAACCGAGAA"
value_observed = 15.5

[[record]]
binder = "AMX86-G10 (ssRNA, 2'-F all C and U (rRfY)) RNA: GGGAAAAGCGAAUCAUACACAAGAGUCAUGGCUUACAAUUGAAACAAGAGCUCGCGUGACACAUGCUCCGCCAGAGACCAACCGAGAA"
value_observed = 73.7


Turning to the following binder.
What Kd value was documented for this binder, AMX86-D11 (ssRNA, 2'-F all C and U (rRfY)) RNA: GGGAAAAGCGAAUCAUACACAAGAUAGCGUCUAUGAUGGCGGAGAAGCAAGUGUAGCAUAACAGGCUCCGCCAGAGACCAACCGAGAA ? 199
